src = patent US20070231871A1

Biological target: Styrene monooxygenase (StyAB), FAD-dependent monooxygenase component (StyA) (Pseudomonas sp)
Construct: made in house; host or cells: Escherichia coli JM101
Sequence (O50214 1-415): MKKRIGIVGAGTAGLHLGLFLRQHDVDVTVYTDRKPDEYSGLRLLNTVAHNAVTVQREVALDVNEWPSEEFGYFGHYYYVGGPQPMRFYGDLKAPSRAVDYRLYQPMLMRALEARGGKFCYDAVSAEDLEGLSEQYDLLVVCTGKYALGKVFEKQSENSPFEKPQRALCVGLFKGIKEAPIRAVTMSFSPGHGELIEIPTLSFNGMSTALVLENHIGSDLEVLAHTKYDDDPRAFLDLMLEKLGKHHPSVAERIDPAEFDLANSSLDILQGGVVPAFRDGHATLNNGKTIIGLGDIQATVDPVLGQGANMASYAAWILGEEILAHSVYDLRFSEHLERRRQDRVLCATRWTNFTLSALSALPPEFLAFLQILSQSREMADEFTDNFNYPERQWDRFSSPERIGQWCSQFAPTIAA
Assay: Electroenzymatic epoxidation of styrene derivatives by StyA with direct electrochemical FAD regeneration
Format: biochemical
Conditions: optical purity of the (S)-epoxide product of the electroenzymatic epoxidation
Consider the following molecules and their measured ee-value readings.
measured_metric: ee-value (%)

| molecule | uom | comparison_symbol | recorded_number |
| --- | --- | --- | --- |
| Clc1cccc([C@H]2CO2)c1 | % | = | 98.1 |
| C[C@]1(c2ccccc2)CO1 | % | = | 99.5 |
| c1ccc2c(c1)CC[C@H]1O[C@@H]21 | % | = | 99.2 |
| C[C@@H]1O[C@H]1c1ccccc1 [(1S,2S)-1-phenylpropylene oxide] | % | > | 99.9 |
| c1ccc([C@H]2CO2)cc1 | % | = | 98.5 |
